For each record, write down the corresponding isoTOP-ABPP ratio, lysine P13639_K318.
- experimental target: EEF2 Elongation factor 2 (Homo sapiens, UniProt P13639)
- Construct: isoTOP-ABPP experiments performed in cell lysates (in vitro); endogenous in cells; host or cells: soluble proteome of human cancer cell lines (MDA-MB-231; Ramos and Jurkat also prepared)
- test details: competitive isoTOP-ABPP
- Format: binding
- test context: 50 uM_231_sol_in vitro
Give bare numbers.

// below: answered compounds
NC(=O)c1cc(C(F)(F)F)cc(C(F)(F)F)c1 [fragment 51, reference compound] = 0.9
O=C(Oc1c(F)c(F)cc(F)c1F)c1cc(C(F)(F)F)cc(C(F)(F)F)c1 [fragment 48] = 1.1
N#Cc1ccc(C(=O)Oc2ccc([N+](=O)[O-])cc2[N+](=O)[O-])cc1 [fragment 44, 2,4-Dinitrophenyl 4-cyanobenzoate] = 1.1
O=C(Oc1c(F)c(F)c(C(F)(F)F)c(F)c1F)c1cc(C(F)(F)F)cc(C(F)(F)F)c1 [fragment 47] = 1.1
O=C(CCc1ccc2c(c1)OCO2)Oc1ccc([N+](=O)[O-])cc1[N+](=O)[O-] [fragment 45] = 1.0

Q: Endpoint output: isoTOP-ABPP ratio, lysine P13639_K318 of O=C(ON1C(=O)CCC1=O)c1cc(C(F)(F)F)cc(C(F)(F)F)c1 [fragment 46] . Value?
Ans: 1.1
